Species: Rattus norvegicus
Assay Details: Open TG-GATES - Regimen: Single
Format: toxicity, organism-based, Sprague-Dawley
Design: regimen Single, gender Male, age 6 weeks
Stated Conditions: in vivo, po, 0 mg/kg, 6 h, tissue Blood, route gavage, dose level Control
Reported Metric: Ht (%)

[[record]]
molecule = "NS(=O)(=O)c1cc(C(=O)O)c(NCc2ccco2)cc1Cl [FUROSEMIDE]"
numeric_value = 39.4

[[record]]
molecule = "O=c1ccc2ccccc2o1"
numeric_value = 40.4

[[record]]
molecule = "CC(S)C(=O)NCC(=O)O (centres undefined)"
numeric_value = 39.8

[[record]]
molecule = "COc1ccc([C@@H]2Sc3ccccc3N(CCN(C)C)C(=O)[C@@H]2OC(C)=O)cc1"
numeric_value = 40.7

[[record]]
molecule = "CN(C)CCCN1c2ccccc2Sc2ccc(Cl)cc21"
numeric_value = 38.8

[[record]]
molecule = "CN(CCOc1ccc(CC2SC(=O)NC2=O)cc1)c1ccccn1.O=C(O)/C=C\\C(=O)O (centres undefined) [ROSIGLITAZONE MALEATE]"
numeric_value = 40

[[record]]
molecule = "Nc1ccc(Cc2ccc(N)cc2)cc1"
numeric_value = 38

[[record]]
molecule = "CCN(CC)C(=S)SSC(=S)N(CC)CC"
numeric_value = 39.4

[[record]]
molecule = "CCO"
numeric_value = 41.4

[[record]]
molecule = "CCCCNC(=O)NS(=O)(=O)c1ccc(C)cc1 [TOLBUTAMIDE]"
numeric_value = 41.9

[[record]]
molecule = "CN(C/C=C/C#CC(C)(C)C)Cc1cccc2ccccc12"
numeric_value = 40.5

[[record]]
molecule = "CC(=O)[C@@]1(O)CC[C@H]2[C@@H]3C=C(Cl)C4=CC(=O)CC[C@]4(C)[C@H]3CC[C@@]21C"
numeric_value = 41.1

[[record]]
molecule = "O=C(O)c1ccccc1Nc1ccccc1"
numeric_value = 39.8

[[record]]
molecule = "COc1cc2ncnc(Nc3ccc(F)c(Cl)c3)c2cc1OCCCN1CCOCC1"
numeric_value = 40.1

